# target under test: MKK4 (Homo sapiens)
# Construct: S84/D399; host or cells: HEK-293
# Sequence (P45985 84-399): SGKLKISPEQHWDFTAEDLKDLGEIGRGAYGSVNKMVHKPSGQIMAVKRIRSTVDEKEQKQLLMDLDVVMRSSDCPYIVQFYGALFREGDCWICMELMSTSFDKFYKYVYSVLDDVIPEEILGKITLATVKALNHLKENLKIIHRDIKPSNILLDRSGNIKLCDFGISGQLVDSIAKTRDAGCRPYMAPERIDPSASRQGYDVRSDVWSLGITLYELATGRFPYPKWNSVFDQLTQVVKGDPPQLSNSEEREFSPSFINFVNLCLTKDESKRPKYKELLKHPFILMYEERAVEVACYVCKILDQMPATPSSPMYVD
# assay overview: KINOMEscan competition binding assay, MKK4 potency
# study conditions: compound concentration 100 nM; lower numbers indicate stronger binding
value kind: MKK4 residual percent of control binding (PoC)

# example entries with known answers
| compound | recorded measurement |
| --- | --- |
| CS(=O)(=O)Nc1ccc(F)c(C(=O)c2ccc3[nH]c4ncc(-c5ccc(S(N)(=O)=O)cc5)cc4c3c2)c1F | + + + |
| CCCS(=O)(=O)Nc1ccc(F)c(C(=O)c2ccc3[nH]c4ncc(-c5ccc(-c6nnn[nH]6)cc5)cc4c3c2)c1F | + + |
| CCS(=O)(=O)Nc1ccc(F)c(C(=O)c2ccc3[nH]c4ncc(-c5ccc(S(N)(=O)=O)cc5)cc4c3c2)c1F | + + + |
| CCCS(=O)(=O)Nc1ccc(F)c(C(=O)c2ccc3[nH]c4ncc(-c5ccc(C(N)=O)cc5)cc4c3c2)c1F | + + + |
| CCCS(=O)(=O)Nc1ccc(F)c(C(=O)c2ccc3[nH]c4ncc(-c5ccc(C(=O)O)cc5)cc4c3c2)c1F | + + + |

Record summary for CCCS(=O)(=O)Nc1ccc(F)c(C(=O)c2ccc3[nH]c4ncc(-c5ccc(OCC(O)CO)cc5)cc4c3c2)c1F (centres unmarked) : reported MKK4 residual percent of control binding (PoC) = + + +

Record summary for `CCCS(=O)(=O)Nc1ccc(F)c(C(=O)c2ccc3[nH]c4ncc(-c5ccc(N)nc5)cc4c3c2)c1F` : reported MKK4 residual percent of control binding (PoC) = + + +

Record summary for `CS(=O)(=O)Nc1c(F)ccc(C(=O)c2ccc3[nH]c4ncc(Cl)cc4c3c2)c1F` : reported MKK4 residual percent of control binding (PoC) = + + +

Record summary for `CCCS(=O)(=O)Nc1ccc(F)c(C(=O)c2ccc3[nH]c4ncc(-c5ccncc5)cc4c3c2)c1F` : reported MKK4 residual percent of control binding (PoC) = + + +

Record summary for `CCCS(=O)(=O)Nc1ccc(F)c(C(=O)c2ccc3[nH]c4ncc(-c5ccc(S(N)(=O)=O)cc5)cc4c3c2)c1F` : reported MKK4 residual percent of control binding (PoC) = + +
